- assay_system: HIV-1LAI envelope gp120 (Human immunodeficiency virus type 1 group M subtype B)
- Assay type: binding
- experimental_conditions: CCR5 18-mer scan; radiolabeled HIV-1LAI gp120; background subtracted
Counts per 20′ Average-background for assorted sequences
metric_name: Counts per 20′ Average-background (counts per 20′)

HCCINPIIYAFVGEKFRN [CCR5 segment 289-] | 200
DRYLAVVHAVFALKARTV | 62
LLTIDRYLAVVHAVFALK | 31
VSSPIYDINYYTSEPCQK [CCR5 segment 5-22] | 383
QEAPERASSVYTRSTGEQ [CCR5 segment 329-] | 84
AARLLPPLYSLVFIFGFV [CCR5 segment 29-46] | 33
LLRCRNEKKRHRAVRLIF | 102
VMVICYSGILKTLLRCRN [CCR5 segment 209-] | −8
QKHIAKRFCKCCSIFQQE [CCR5 segment 313-] | 23
AVVHAVFALKARTVTFGV | 34
MDYQVSSPIYDINYYTSE | 735
KIVILGLVLPLLVMVICY | 65
IFTRSQKEGLHYTCSSHF | 98
QEFFGLNNCSSSNRLDQA [CCR5 segment 261-] | 63
SQKEGLHYTCSSHFPYSQ [CCR5 segment 169-] | 304
MLVILILINCKRLKSMTD [CCR5 segment 49-66] | 84
VTETLGMTHCCINPIIYA [CCR5 segment 281-] | 15

Numbers sourced from patent US20030068615A1.
